test: in vitro; conditions: PAMPA, PAMPA-BBB Pe, Table S2: compounds exhibiting moderate to high PAMPA-BBB permeability
Structures can show the parent of a compound that is named as a salt.
Assign labels as follows, please: Fulfilled for Papp below 100 ×10⁻⁶ cm/s; Not fulfilled for Papp equal to or exceeding 100 ×10⁻⁶ cm/s.

Would you please look over these solved cases?
# molecule, label class
measured = [
    ("COC1=CC(=O)O[C@@H](CCc2ccccc2)C1 [DIHYDROKAWAIN]", "Fulfilled"),
    ("COc1ccc(COC(C)=O)cc1 [P-METHOXYBENZYL ACETATE]", "Not fulfilled"),
    ("CC1=CC(=O)C2=C(C)CC[C@@H]3[C@H](OC(=O)[C@H]3C)[C@@H]12", "Fulfilled"),
]

In: Record `CO[C@@H]1[C@@H](O[C@@H]2O[C@H](C)[C@@H](O[C@H]3C[C@@](C)(O)[C@@H](OC(=O)CC(C)C)[C@H](C)O3)[C@H](N(C)C)[C@H]2O)[C@@H](CC=O)C[C@@H](C)C(=O)/C=C/[C@@H]2O[C@H]2C[C@@H](C)OC(=O)C[C@H]1OC(C)=O` : is its Papp strictly below 100 ×10⁻⁶ cm/s?
Out: Fulfilled

In: Record `CN1C[C@H](CO)C=C2c3cccc4[nH]cc(c34)C[C@H]21` : is its Papp strictly below 100 ×10⁻⁶ cm/s?
Out: Fulfilled

In: Record COc1c2c(cc3c1OCO3)CCN(C)C2 [HYDROCOTARNINE HYDROBROMIDE] : is its Papp strictly below 100 ×10⁻⁶ cm/s?
Out: Fulfilled

====

settings: Table S2: compounds exhibiting moderate to high PAMPA-BBB permeability
assay readout: PAMPA-BBB Pe

# molecule, PAMPA-BBB Pe
records = [
    ("COc1ccc([C@@H](C)C(=O)c2ccc(O)cc2O)cc1", "345 10^-6 cm/sec"),
]

I need PAMPA-BBB Pe for every entry listed below, if you could help.
1. COc1ccc(C(=O)OC2CC3CC[C@H](C2)N3C(C)=O)cc1OC (stereo partly shown)
2. CC(/C=C/C(=O)NO)=C\[C@@H](C)C(=O)c1ccc(N(C)C)cc1
3. COc1cccc2c(=O)c3ccoc3n(C)c12
4. COc1ccc(/C=C/C(=O)c2cc(O)ccc2O)cc1
5. C=C(C)[C@H]1COc2cc3oc(=O)ccc3cc2O1
6. C=C(C)[C@@H]1CCC2=CC(=O)C[C@@H](C)[C@]2(C)C1

Out:
1. 22 10^-6 cm/sec
2. 55 10^-6 cm/sec
3. 54 10^-6 cm/sec
4. 300 10^-6 cm/sec
5. 152 10^-6 cm/sec
6. 63 10^-6 cm/sec

====

Please respond with reported Papp for every item in the list.
experiment: in vitro; details: PAMPA, PAMPA-BBB Pe, Table S2: compounds exhibiting moderate to high PAMPA-BBB permeability
Give bare numbers, in ×10⁻⁶ cm/s.

I need Papp for every entry listed below, if you could help.
1. COc1cc2c(c(OC)c1OC)-c1c(cc(OC)c(OC)c1OC)C[C@H](C)[C@H](C)C2 [S[…]]
2. COc1cc(OC)c(OC)cc1C=O
3. CC(=O)/C=C/C1C(C)=CCC(C)C1(C)C (mixture of isomers) [DL-TRANS-.ALPHA.-IRONE]
4. C[C@]12CC[C@H](O)C[C@H]1CC[C@@H]1[C@@H]2CC[C@]2(C)[C@@H](c3ccc(=O)oc3)C[C@H]3O[C@]132
5. COc1ccc(-c2cc(=O)c3c(O)c(OC)c(OC)cc3o2)cc1O
6. C=C[C@]12CN(C)[C@@H]3[C@H]4CO[C@H](C[C@H]41)[C@]1(C(=O)Nc4ccccc41)[C@@H]32
7. COC(=O)c1c(C)cc(O)cc1O [Methyl 2,4-dihydroxy-6-methylbenzoate]
8. COc1cc2c(cc1OC)OC(C)(C)C=C2

Out:
[171, 64, 34, 115, 281, 13, 63, 159]

I need Papp for every entry listed below, if you could help.
1. O=c1c(-c2ccc(O)cc2)coc2cc(O)cc(O)c12
2. CCOC(=O)c1ccc(O)cc1 [ETHYL HYDROXYBENZOATE]
3. COc1ccc2ccc(=O)oc2c1
4. COC(=O)C1=CO[C@@H](C)[C@@H]2CN3CC[C@@]4(C(=O)Nc5ccccc54)[C@@H]3CC12 (some centres unmarked)
5. CNC(=O)Nc1ccc(Cl)c(Cl)c1
6. CC(=O)[C@H]1CC[C@H]2[C@@H]3C[C@H](C)C4=CC(=O)CC[C@]4(C)[C@H]3[C@@H](O)C[C@]12C
7. COC(=O)c1ccccc1OC [METHYL O-ANISATE]
8. C[C@]12CC[C@H]3[C@@H](CCC4=CC(=O)CC[C@@]43C)[C@@H]1CC[C@@H]2C(=O)CO

Out:
1: 35; 2: 43; 3: 77; 4: 117; 5: 115; 6: 72; 7: 120; 8: 65

Papp for `Cc1ccc(C(C)C)c(O)c1` is 168

Cited source: paper PMC11876671
